Cited source for all entries: patent US20260083865A1

Recorded measurements of Kd, one per entry
Molecular target: Fc-fusion protein of human PSMA (hPSMA-Fc) (Homo sapiens, UniProt Q04609)
Construct: purchased Acro Biosystems PSA-H5264
Sequence (Q04609 44-750 limits assumed): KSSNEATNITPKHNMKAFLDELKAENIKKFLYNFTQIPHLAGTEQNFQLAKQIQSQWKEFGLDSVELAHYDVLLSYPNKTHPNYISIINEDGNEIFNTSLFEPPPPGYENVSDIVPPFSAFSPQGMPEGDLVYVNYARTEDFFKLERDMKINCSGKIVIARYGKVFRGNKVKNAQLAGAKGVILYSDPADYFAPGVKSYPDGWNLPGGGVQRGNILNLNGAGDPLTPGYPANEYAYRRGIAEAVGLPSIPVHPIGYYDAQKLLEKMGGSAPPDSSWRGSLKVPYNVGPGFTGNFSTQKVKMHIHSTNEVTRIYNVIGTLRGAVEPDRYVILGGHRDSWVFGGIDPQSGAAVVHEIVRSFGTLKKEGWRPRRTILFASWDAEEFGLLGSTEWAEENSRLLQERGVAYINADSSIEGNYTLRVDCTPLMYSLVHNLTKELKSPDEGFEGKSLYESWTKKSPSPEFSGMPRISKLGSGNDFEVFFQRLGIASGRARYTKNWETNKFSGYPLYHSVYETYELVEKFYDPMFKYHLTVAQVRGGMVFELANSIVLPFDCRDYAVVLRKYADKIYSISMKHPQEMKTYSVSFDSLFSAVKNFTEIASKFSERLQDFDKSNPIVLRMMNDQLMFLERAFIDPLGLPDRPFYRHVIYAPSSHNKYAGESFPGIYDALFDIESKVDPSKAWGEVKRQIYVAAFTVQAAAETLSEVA
Experiment: Surface plasmon resonance assay (Biacore T200, single cycle kinetic)
Type: binding
Settings: SPR, hPSMA-Fc, single cycle kinetic, 25° C.; category; read-out: pKD CAT (converted)
Method: Surface plasmon resonance (SPR) studies were performed using a Biacore™ T200 SPR system. Briefly, polarized light is directed towards a gold-labeled sensor surface, and minimum intensity reflected light is detected. […] For each test compound, SPR raw data in the form of resonance units (RU) were plotted as sensorgrams using the Biacore™ T200 control software. […] The pKD value (negative decadic logarithm of dissociation constant) was calculated using Microsoft Excel.
Numbered stars: 1 amine (or outer) side, 2 acyl side, 3 side chain; on linkers, the order of the positions; unused ones are H or OH. Bridge positions count the residues as written; N and C are the ends. Square brackets hold non-standard residues; d marks the D form. Peptide text beside a SMILES is read from it. * marks the point of attachment. DOTA = O=C(O)CN1CCN(CC(=O)O)CCN(CC(=O)*)CCN(CC(=O)O)CC1; Phe(3-CF3) = N[C@@H](Cc1cccc(C(F)(F)F)c1)C(=O)O; Phe(4-Cl) = N[C@@H](Cc1ccc(Cl)cc1)C(=O)O; Arg(Me) = CNC(=N)NCCC[C@H](N)C(=O)O; 2Pal = N[C@@H](Cc1ccccn1)C(=O)O; X1 = O=C(CC1CCN([*:1])CC1)[*:2]; Lys(Me) = CNCCCC[C@H](N)C(=O)O; Tle = CC(C)(C)[C@H](N)C(=O)O; Aib = CC(C)(N)C(=O)O; Guanidino = N=C(N)N*; Sar = CNCC(=O)O
property-label: Kd

* CNCCCC[C@@H]1NC(=O)[C@@H](NC(=O)[C@H](Cc2ccccn2)NC(=O)C(C)(C)NC(=O)[C@@H](NC(=O)CC2CCN(C(=O)CN3CCN(CC(=O)O)CCN(CC(=O)O)CCN(CC(=O)O)CC3)CC2)[C@@H](C)O)CSSC[C@@H](C(=O)N[C@H](C(=O)N[C@H](C(N)=O)[C@@H](C)O)C(C)(C)C)NC(=O)[C@H](CC(N)=O)NC(=O)C(C)(C)NC(=O)[C@H](CCCNC(=N)NC)NC1=O [PSM-0257] ({DOTA}-[X1]T[Aib][2Pal]C[Lys(Me)][Arg(Me)][Aib]NC[Tle]T-NH2; disulfide 5-10) | 12.6 to 126 nM
* CC(=O)N[C@H](C(=O)NC(C)(C)C(=O)N[C@@H](Cc1ccc(Cl)cc1)C(=O)N[C@H]1CSSC[C@@H](C(=O)N[C@H](C(=O)N[C@H](C(N)=O)[C@@H](C)O)C(C)(C)C)NC(=O)[C@H](CC(N)=O)NC(=O)C(C)(C)NC(=O)[C@H](CCC(=O)NC(=N)N)NC(=O)[C@H](CCCCN)NC1=O)[C@@H](C)O [PSM-0189] (Ac-T[Aib][Phe(4-Cl)]CKE(Guanidino)[Aib]NC[Tle]T-NH2; disulfide 4-9) | < 12.6 nM
* CC(=O)N[C@H](C(=O)NC(C)(C)C(=O)N[C@@H](Cc1cccc(C(F)(F)F)c1)C(=O)N[C@H]1CSSC[C@@H](C(=O)N[C@H](C(=O)N[C@H](C(N)=O)[C@@H](C)O)C(C)(C)C)NC(=O)[C@H](CC(N)=O)NC(=O)C(C)(C)NC(=O)[C@H](CCCNC(=N)N)NC(=O)[C@H](CCCCN)NC1=O)[C@@H](C)O [PSM-0264] (Ac-T[Aib][Phe(3-CF3)]CKR[Aib]NC[Tle]T-NH2; disulfide 4-9) | < 12.6 nM
* CC(=O)N[C@H](C(=O)NC(C)(C)C(=O)N[C@@H](Cc1ccccc1)C(=O)N[C@H]1CSSC[C@@H](C(=O)N[C@H](C(=O)N[C@H](C(N)=O)[C@@H](C)O)C(C)(C)C)NC(=O)[C@H](CC(N)=O)NC(=O)CN(C)C(=O)[C@H](CCCNC(=N)N)NC(=O)[C@H](CCCCN)NC1=O)[C@@H](C)O [PSM-0232] (Ac-T[Aib]FCKR[Sar]NC[Tle]T-NH2; disulfide 4-9) | < 12.6 nM
* CC(=O)N[C@H](C(=O)NC(C)(C)C(=O)N[C@@H](Cc1ccccc1)C(=O)N[C@H]1CSSC[C@@H](C(=O)N[C@H](C(=O)N[C@H](C(N)=O)[C@@H](C)O)C(C)(C)C)NC(=O)[C@H](CC(N)=O)NC(=O)C(C)(C)NC(=O)[C@H](CCCNC(=N)N)NC(=O)[C@H](CCCCN)NC1=O)[C@@H](C)O [PSM-0178] (Ac-T[Aib]FCKR[Aib]NC[Tle]T-NH2; disulfide 4-9) | < 12.6 nM
